Hey, just so you know, these numbers are from the RepoRT retention time repository (doi:10.1016/j.jhazmat.2019.121712).

ASSAY PROTOCOL: Thermo Scientific Acclaim RSLC 120 C18, 100 × 2.1 mm, 2.2 µm, 30 °C; A: 90% water + 10% methanol + 0.01% formic acid + 5 mM ammonium formate; B: methanol + 0.01% formic acid + 5 mM ammonium formate; gradient (min/%B) 0.1/1 3/39 14/99.9 16/99.9
PARTICULARS: stereoisomer not certain
Listed below: LC retention time values for each entry.
Note: unit min is implicit; provide only the numeric part.

A selection of reference data follows.
* CC=C1N(C)C(C)CC1(c1ccccc1)c1ccccc1 (stereo not drawn) | 6.38
* COc1ccc(CCN(C)CCCC(C#N)(c2cc(OC)c(OC)c(OC)c2)C(C)C)cc1OC (stereo not drawn) | 7.19
* CC1=C(C(=O)Nc2ccccc2)SCCO1 | 7.46
* COC(=O)C1=C(C)NC(C)=C(C(=O)OCC(C)C)C1c1ccccc1[N+](=O)[O-] (stereo not drawn) | 10.6
* CCCc1nn(C)c2c(=S)nc(-c3cc(S(=O)(=O)N4CCN(C)CC4)ccc3OCC)[nH]c12 | 10.6
* COP(N)(=O)SC (stereo not drawn) | 2.76

The recorded LC retention time for CNC(C)CC1CCCCC1 (stereo not drawn) is 5.74

The compound listed as CNC(C)Cc1ccc(O)c(OC)c1 (stereo not drawn) has a reported LC retention time of 3.19

Per the records, this compound ( C1=Cc2ccccc2Nc2ccccc21 ) has LC retention time equal to 10.1

---

ASSAY PROTOCOL: Thermo Scientific Acclaim RSLC 120 C18, 100 × 2.1 mm, 2.2 µm, 30 °C; A: 90% water + 10% methanol + 0.01% formic acid + 5 mM ammonium formate; B: methanol + 0.01% formic acid + 5 mM ammonium formate; gradient (min/%B) 0.1/1 3/39 14/99.9 16/99.9
PARTICULARS: stereoisomer not certain
Definition: the class of an entry is the range in bottom = under 6 min, middle = from 6 min up to 10 min, top = 10 min and over that contains its LC retention time.

Example entries and their recorded answers appear below.
* CC(C)=CC1C(C(=O)OCN2C(=O)C3=C(CCCC3)C2=O)C1(C)C (stereo not drawn) | top
* CCCCCCn1cc(C(=O)c2cccc3ccccc23)cc1-c1ccccc1 | top
* O=C(O)c1cc(N=Nc2ccc(S(=O)(=O)Nc3ccccn3)cc2)ccc1O | middle
* CC(=O)Oc1c(C)cc(OCC(O)CNC(C)C)c(C)c1C (stereo not drawn) | middle
* COc1cccc(N(C)C(=S)Oc2cccc(C(C)(C)C)c2)n1 | top
* CCC=CCC1=C(C)C(OC(=O)C2C(C=C(C)C)C2(C)C)CC1=O (stereo not drawn) | top

Input N#CCCCCn1cc(C(=O)c2cccc3ccccc23)c2ccccc21 ; output its category
middle

Assign a category based on measured LC retention time for CNCC1CCCCC1(O)c1cccc(O)c1 (stereo not drawn) and give only the class name.
bottom

Class (by measured LC retention time) for CNC(=O)ON=C(SC)C(=O)N(C)C
bottom

Bin? Cc1c(C(=O)c2cccc3ccccc23)c2cccc3c2n1C(CN1CCOCC1)CO3 (stereo not drawn)
top

Categorize the following entry: CC(C)N(CCC(C(N)=O)(c1ccccc1)c1ccccn1)C(C)C (stereo not drawn)
bottom

---

ASSAY PROTOCOL: Thermo Scientific Acclaim RSLC 120 C18, 100 × 2.1 mm, 2.2 µm, 30 °C; A: 90% water + 10% methanol + 0.01% formic acid + 5 mM ammonium formate; B: methanol + 0.01% formic acid + 5 mM ammonium formate; gradient (min/%B) 0.1/1 3/39 14/99.9 16/99.9
PARTICULARS: stereoisomer not certain
MEASURED METRIC: LC retention time (min)
Report the figure in min without appending any unit label.

Study these solved cases before continuing.
- COC(=O)C1=C(C)NC(C)=C(C(=O)OC(C)C)C1c1cccc2nonc12 (stereo unspecified): 9.61
- CN1CCCCC(n2cc(C(=O)c3cccc4ccccc34)c3ccccc32)C1 (stereo unspecified): 8.61
- CC[N+]([O-])(CC)CC(=O)Nc1c(C)cccc1C: 5.34
- CCOc1cc(CC(=O)NC(CC(C)C)c2ccccc2N2CCCCC2)ccc1C(=O)O (stereo unspecified): 11.9
- CCOc1ccc(NC(=O)OC(C)C)cc1OCC: 9.04
- CN(C)CC(c1ccc(O)cc1)C1(O)CCCCC1 (stereo unspecified): 4.76

Reported LC retention time for CCc1cccc(CC)c1N(COC)C(=O)CS(=O)(=O)O was 7.19

Measured LC retention time, CCCCNC(=O)NS(=O)(=O)c1ccc(C)cc1 : 7.68

Record Cc1cc2c(s1)Nc1ccccc1N=C2N1CCN(C)CC1 , field LC retention time: 4.99

Measured LC retention time, CCOc1ccc(NC(=O)CC(C)O)cc1 (stereo unspecified) : 6.27

The molecule listed as CN(CCO)CC(O)Cn1cnc2c1c(=O)n(C)c(=O)n2C (stereo unspecified) shows LC retention time equal to 2.99

// sample CC(CN1CCN(CCOCCO)CC1)CN1c2ccccc2Sc2ccccc21 (stereo unspecified) , its LC retention time was 9.08

LC retention time measured on CNC(=O)Oc1cccc(N=CN(C)C)c1 = 3.14

---

ASSAY PROTOCOL: Thermo Scientific Acclaim RSLC 120 C18, 100 × 2.1 mm, 2.2 µm, 30 °C; A: 90% water + 10% methanol + 0.01% formic acid + 5 mM ammonium formate; B: methanol + 0.01% formic acid + 5 mM ammonium formate; gradient (min/%B) 0.1/1 3/39 14/99.9 16/99.9
PARTICULARS: stereoisomer not certain
MEASURED METRIC: LC retention time (min)
Just the number please, in min, no unit attached.

* CCOP(=O)(NC(C)C)Oc1ccc(S(C)(=O)=O)c(C)c1 (stereo not given) | 7.21

Reported LC retention time ( O=S(=O)(O)NC1CCCCC1 ) = 6.99

Input Cc1nnc2n1-c1ccc([N+](=O)[O-])cc1C(c1ccccc1)=NC2 . Output LC retention time: 6.91

# LC retention time of COc1ccc(C(C[N+](C)(C)[O-])C2(O)CCCCC2)cc1 (stereo not given) = 6.94

Memo: CNC(=O)Nc1nc2ccccc2s1 , reported LC retention time: 7.13

---

ASSAY PROTOCOL: Thermo Scientific Acclaim RSLC 120 C18, 100 × 2.1 mm, 2.2 µm, 30 °C; A: 90% water + 10% methanol + 0.01% formic acid + 5 mM ammonium formate; B: methanol + 0.01% formic acid + 5 mM ammonium formate; gradient (min/%B) 0.1/1 3/39 14/99.9 16/99.9
PARTICULARS: stereoisomer not certain
MEASURED METRIC: LC retention time (min)
Give just the number in min; leave the unit off.

• O=C(O)c1ccccc1C(=O)Nc1cccc2ccccc12 = 6.75
• c1cncc(C2CCCN2)c1 (stereo not given) = 3.14
• CCC(=O)OC(Cc1ccccc1)(c1ccccc1)C(C)CN(C)C (stereo not given) = 7.73
• CN(C)C(=S)SSC(=S)N(C)C = 6.8

// LC retention time lookup, molecule = Cc1nc(N(C)C)nc(OC(=O)N(C)C)c1C , result: 7.77

Form field LC retention time, entry CCOc1ccc2c(c1)C(C)=CC(C)(C)N2 : 10.1

Lab book: LC retention time of Cc1cc(NS(=O)(=O)c2ccc(N)cc2)no1 noted as 4.6

For this molecule ( CCC(c1cccc(O)c1)C(C)CNC (stereo not given) ), measured LC retention time is 5.14

// recorded LC retention time for NC(N)=NC(N)=NCCc1ccccc1 : 4.38

// sample CNC(=O)Oc1cc(C)c(S(C)(=O)=O)c(C)c1 , its LC retention time was 5.28

For record CCOP(=S)(OCC)SCn1nnc2ccccc2c1=O the listed LC retention time is 10.2

Entry under test: CCC1(c2ccc(N)cc2)CCC(=O)NC1=O (stereo not given) . Its LC retention time was 4.99

---

ASSAY PROTOCOL: Thermo Scientific Acclaim RSLC 120 C18, 100 × 2.1 mm, 2.2 µm, 30 °C; A: 90% water + 10% methanol + 0.01% formic acid + 5 mM ammonium formate; B: methanol + 0.01% formic acid + 5 mM ammonium formate; gradient (min/%B) 0.1/1 3/39 14/99.9 16/99.9
PARTICULARS: stereoisomer not certain
Consider the following compounds and their measured LC retention time readings.
Value expressed in min; do not type the unit.

Some compounds with known LC retention time results, for comparison:
• Cc1nccc2c1[nH]c1ccccc12 = 4.91
• CN1CCC(=C2c3ccccc3CCc3sccc32)CC1 = 7.86
• CCCCCn1cc(C(=O)c2ccccc2OC)c2ccccc21 = 11.2

Entry CCc1ccc(CCOc2ccc(CC3SC(=O)NC3=O)cc2)nc1 (centres undefined) , LC retention time reported as 9.09

Lab note: measured LC retention time of CC(C)OC(=O)Nc1ccc2nc(-c3cscn3)[nH]c2c1 was 7.66

Just so you know, measured LC retention time for O=C1OC(=O)c2ccccc21 came out at 9.58

Record CN(C(=O)CN(CCO)CC(=O)N(C)C(C)(C)Cc1ccccc1)C(C)(C)Cc1ccccc1 , field LC retention time: 10.9
